meta.source: paper PMC12040169

Measured viability at 28.5 h, 10 µM, listed per entry.
test: in vitro; conditions: human, hela cells, % viability
Respond numerically; units are % and should not be typed.

Some solved cases for reference:
The compound CCC(CN1CCN(C)CC1)NC(=O)Cc1ccc2c(c1)CCC2 (centres unmarked) showed viability at 28.5 h, 10 µM equal to 92.2

The compound O=C(O)CCCC(=O)N1N=C(c2ccccc2)CC1c1ccc2nccnc2c1 (centres unmarked) showed viability at 28.5 h, 10 µM equal to 89.4

The compound Cc1ccc2c(N)c(C(=O)c3cccs3)sc2n1 showed viability at 28.5 h, 10 µM equal to 92.5

The compound CCOC(=O)C1(C2CCCCC2)CCN(C(=O)c2cccc(C(F)(F)F)c2)CC1 showed viability at 28.5 h, 10 µM equal to 91.7

The compound CC1=CC(C)C(=S)NC(C)=C1 (centres unmarked) showed viability at 28.5 h, 10 µM equal to 91

Continuing:
The compound O=C(Cn1cnc2ccc(F)cc2c1=O)N1CCOC2CCCC21 (centres unmarked) showed viability at 28.5 h, 10 µM equal to 90.4

The compound Cc1nc2cccnc2n1C1CCN(C(=O)C(C)(C)C)CC1 showed viability at 28.5 h, 10 µM equal to 89.2

The compound Cc1cccc(OCC(=O)NCC(c2cccs2)N2CCOCC2)c1 (centres unmarked) showed viability at 28.5 h, 10 µM equal to 90.1

###

Measured viability at 28.5 h, 10 µM, listed per entry.
assay: in vitro; details: human, hela cells, % viability
Respond numerically; units are % and should not be typed.

The compound CC1(CC(=O)N2CCCCCC2)SC(NC2CCCCCC2)=NC1=O (stereo not shown) showed viability at 28.5 h, 10 µM equal to 96

The compound O=C(N/N=C/c1cc(Br)c(Br)o1)c1cccc(F)c1 showed viability at 28.5 h, 10 µM equal to 94.2

The compound COc1ccc([C@@]23CC[C@@H](NC(=O)Nc4cccc5nsnc45)C[C@@H]2N(C)CC3)cc1OC [CBK038874T] showed viability at 28.5 h, 10 µM equal to 86.8

The compound Cn1ncc2c(NCc3cccc(Cn4cncn4)c3)ncnc21 showed viability at 28.5 h, 10 µM equal to 89.9

The compound O=C(O)c1cc(C(=O)O)cc(N2C(=O)c3ccc(-c4ccc5c(c4)C(=O)N(c4cc(C(=O)O)cc(C(=O)O)c4)C5=O)cc3C2=O)c1 showed viability at 28.5 h, 10 µM equal to 96.6

Continuing:
The compound CC(C)(C)NC(=O)Cn1cncc1-c1[nH]c2ccccc2c1Cl showed viability at 28.5 h, 10 µM equal to 105

The compound CC(=O)Nc1cccc(C(=O)N2CCN(CC3CCCO3)CC2)c1 (stereo not shown) showed viability at 28.5 h, 10 µM equal to 96

###

experiment: in vitro; settings: human, hela cells, % viability
Measured viability at 28.5 h, 10 µM, listed per entry.
Respond numerically; units are % and should not be typed.

The compound NC(=O)c1[nH]nc(C2OC(CO)C(O)C2O)c1O (stereo not shown) showed viability at 28.5 h, 10 µM equal to 95.1

The compound COc1ccccc1NC(=O)CN1CCN(CCC(=O)c2ccc(C(C)C)cc2)CC1 [CBK023925C] showed viability at 28.5 h, 10 µM equal to 95

The compound O=C(O)/C=C/C(=O)N(Cc1ccc2c(c1)OCO2)C1CC(=O)N(c2ccccc2)C1=O (stereo not shown) showed viability at 28.5 h, 10 µM equal to 91.4

The compound Cc1ccc2nc(SCCC(=O)O)cc(C)c2c1 showed viability at 28.5 h, 10 µM equal to 90.1

The compound CC(C)c1nc(CN2CCN(c3ccc4nncn4n3)CC2)cs1 showed viability at 28.5 h, 10 µM equal to 102

Continuing:
The compound CSCCNC(=O)c1coc(COc2ccc3sc(C)nc3c2)n1 showed viability at 28.5 h, 10 µM equal to 99.3

The compound Cc1nc(NC(=O)CN2CCN(c3cccc(Cl)c3)CC2)sc1C showed viability at 28.5 h, 10 µM equal to 88.5

The compound c1ccc(Nc2nc(-c3ccc(N4CCOCC4)cc3)cn3ccnc23)cc1 showed viability at 28.5 h, 10 µM equal to 90.4

The compound Cc1cc(=O)oc2ccc(OCC(=O)N(Cc3ccc(F)cc3)Cc3ccco3)cc12 showed viability at 28.5 h, 10 µM equal to 103

The compound COc1cnc(-c2ccsc2)c(NC(=O)c2cc(C)oc2C)n1 showed viability at 28.5 h, 10 µM equal to 93.2

The compound N#Cc1ccc(NC(=O)CSc2cnn[nH]2)cc1 showed viability at 28.5 h, 10 µM equal to 87.7

The compound CN(C)CCNC(=S)Nc1ccc([N+](=O)[O-])cc1 showed viability at 28.5 h, 10 µM equal to 97.7

The compound Cc1cc2nc(SCc3nc4ccccc4[nH]3)[nH]c2cc1C showed viability at 28.5 h, 10 µM equal to 97.4
